Overview of recorded apparent Kd for various sequences
- System: MS2 coat protein
- method-description: apparent Kd, MS2 coat protein; higher = weaker binding; RNA-MaP array; FMN 200 µM where present
- condition-set: designed as: OFF switch for flavin mononucleotide; no ligand
Kindly answer with a numeric value in µM, unit omitted.

For the sequence `UGAGCCUCGUGAGGAUAUACAUGAGGAUCACCCAUGUAAUAAAGUGAACGGAGGAAACUCCGAAUGUAGAAGGUACGAGGCUCA` , what apparent Kd is on record?
0.0101

Which apparent Kd is listed for `CGGUGACGUGUAGGAUAUGGCGCUGGGUUUUGCCCAGAAGGACAUGAGGAUCACCCAUGUGGUAGAGGGCUGGCGGCCGCCCGU` ?
0.0171

Need apparent Kd of `GGUGUGAGGCAGGAUAUGCUAUAUGUUCGUAAUGCAGAAGGGUCUACAUGAGGAUCACCCAUGUGUGCGGUUGA` , thanks.
0.172

# input sequence: `GAGAUGUGAGGAUAUCUAGACCGCGAAAGAGCCGCGGUCCGAGAGAAGGCACAUGAGGAUCACCCAUGUGAUGA` ; wanted: its apparent Kd
0.0469

====

- System: MS2 coat protein
- method-description: apparent Kd, MS2 coat protein; higher = weaker binding; RNA-MaP array; FMN 200 µM where present
- condition-set: designed as: OFF switch for flavin mononucleotide; no ligand
readout-name: apparent Kd (nM)
Give just the number in nM; leave the unit off.

Solved cases below.
AUUUUUAAGGUAGGAUAUAGUAUGAUGGUUUAAUUAGAAGGAUCUCACAUGAGGAUCACCCAUGUAAUAGGAUUACCCAUGUAU	53.7
GGAUGAGAAACUCAUCCAAUACGAACAUGAGGAUCACCCAUGUAGGAUAUGCUACUCAAAGAGUAGCAGAAGGACAUGUGUCUU	27.4
UUGUUGUAUGUAGGAUAUGCAUAUUAUUAUUGUGCAGAAGGACAUGAGGAUCACCCAUGUAUAUUAUUAUUAUAUAUUAUAUAU	35.3
CCUGGUUGGUAAGGAUAUCCUACACUGUUCUGACCCGUGCAAGCUACAUGAGGAUCACCCAUGUGGGAGAAGGUGCGUCAACGC	12.6

API: value(readout=apparent Kd, system=MS2 coat protein) for record `GUCGUGUGAGGAUAUGGAUAGACGCAGUGACAGUCAGCGACCUAGAAGGCACAUGAGGAUCACCCAUGUAUGUG`
47.2

====

- Test system: MS2 coat protein
- method-description: apparent Kd, MS2 coat protein; higher = weaker binding; RNA-MaP array; FMN 200 µM where present
- condition-set: designed as: OFF switch for flavin mononucleotide; no ligand
readout-name: apparent Kd (nM)
// return numeric value only (unit: nM, not printed)

# example entries with known answers
AAAUAAAGCAGUGUAUUAAGAUAACAUGAGGAUCACCCAUGUAGAAGGCUCGAGCAAAAUGCUCGAGAGGAUAUACAACACUGC	5.04
UGGCUACAUGAGGAUCACCCAUGUCAGGAUAUGCCGUCGGAUUGCCUUCGUCGUUCGGGUAGAAGGGACUGCGG	24.6
UAGCAUUGCCUUUGGUAGUGCUUUACAUGAGGAUCACCCAUGUAGGAUAUGGUAGGCUUUGCUUACCAGAAGGACAUGAUAAUU	52.9

Next, consider the following sequence.
Observed apparent Kd on MS2 coat protein for `GGGCCGAAAGGCCCGCGGGCCCGGCAGGAUAUACAUGAGGAUCACCCAUGUCCGGCGAAAGCCGGGUAGAAGGGCCGGGCCCGC` , please.
4.98
